Listed here: items and their measured pIC50.
- tgt: KRAS-G13D (Homo sapiens, UniProt P01116, G13D)
- Construct: N-terminal biotin-acceptor peptide […]
- Sequence (P01116 with tags, fused parts or gaps isoform P01116-2 G13D): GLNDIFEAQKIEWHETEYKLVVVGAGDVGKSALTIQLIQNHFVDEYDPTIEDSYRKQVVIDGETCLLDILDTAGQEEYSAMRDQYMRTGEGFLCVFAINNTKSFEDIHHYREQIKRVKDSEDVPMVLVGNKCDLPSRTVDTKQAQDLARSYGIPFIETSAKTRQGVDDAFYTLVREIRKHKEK
- assay.details: SOS-catalyzed nucleotide exchange assay (Procedure A, TR-FRET)
- Assay type: biochemical
- condition.description: 60 min preincubation, GTP, read-out: KRAS G13D GNE IC50
Lab note — pIC50 values are minus log10 of concentrations in M.

# count of solved cases: 3
compound	pIC50
N#Cc1c(N)sc2c(F)ccc(-c3c(Cl)cc4c(N5CCCOCC5)nc(OC[C@]5(CN6CCOCC6)CC5(F)F)nc4c3F)c12 [compound 31]	6.13
Cc1cc(N)nc(-c2c(Cl)cc3c(N4CCCOCCC4)nc(OC[C@@]45CCCN4C[C@H](F)C5)nc3c2F)c1C(F)(F)F [compound 41]	7.12
Cc1cc(N)nc(-c2c(Cl)cc3c(N4CCCOCC4)nc(OC[C@@]45CCCN4C[C@H](F)C5)nc3c2F)c1C(F)(F)F [compound 40]	6.69

Attention now turns to another entry.
Fill in reported pIC50 for this entry: C[C@H]1CCCCCN1c1nc(OC[C@@]23CCCN2C[C@H](F)C3)nc2c(F)c(-c3ccc(F)c4sc(N)c(C#N)c34)c(Cl)cc12 [Ex. 3] 7.26

* * *

# Lookup of reported pIC50 keyed by entry
- tgt: KRAS-G12V (Homo sapiens, UniProt P01116, G12V)
- Construct: N-terminal biotin-acceptor peptide […]
- Sequence (P01116 with tags, fused parts or gaps isoform P01116-2 G12V): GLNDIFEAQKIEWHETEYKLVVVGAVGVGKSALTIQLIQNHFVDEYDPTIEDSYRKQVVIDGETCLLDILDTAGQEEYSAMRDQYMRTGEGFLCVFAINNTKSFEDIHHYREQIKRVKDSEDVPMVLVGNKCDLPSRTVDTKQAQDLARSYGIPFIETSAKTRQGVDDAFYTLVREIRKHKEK
- assay.details: SOS-catalyzed nucleotide exchange assay (Procedure A, TR-FRET)
- condition.description: 60 min preincubation, SOS + GTP, read-out: KRAS G12V GNE IC50
Scale: negative log10 of molar concentration, which is what pIC50 denotes.

molecule	result.number
N#Cc1c(N)sc2c(F)ccc(-c3c(Cl)cc4c(N5CCCOCC5)nc(OC[C@]5(CO)CC5(F)F)nc4c3F)c12	5.46

Please tell me the measured pIC50 for N#Cc1c(N)sc2c(F)ccc(-c3c(Cl)cc4c(N5CCOCCC5C5CC5)nc(OC[C@@]56CCCN5C[C@H](F)C6)nc4c3F)c12 (stereo partly drawn) ; system: KRAS-G12V (Homo sapiens, UniProt P01116, G12V). 7.36

Under KRAS-G12V (Homo sapiens, UniProt P01116, G12V), report pIC50 for CCC1CCOCCN1c1nc(OC[C@@]23CCCN2C[C@H](F)C3)nc2c(F)c(-c3ccc(F)c4sc(N)c(C#N)c34)c(Cl)cc12 (stereo partly drawn) 8.21

* * *

Below, each entry is listed alongside its reported IC50.
- tgt: KRAS-G12V (Homo sapiens, UniProt P01116, G12V)
- Construct: N-terminal biotin-acceptor peptide […]
- assay.details: SOS-catalyzed nucleotide exchange assay (Procedure A, TR-FRET)
- condition.description: 60 min preincubation, SOS + GTP, read-out: KRAS G12V GNE IC50

// below: answered compounds
compound	tgt	IC50
N#Cc1c(N)sc2c(F)ccc(-c3c(Cl)cc4c(N5CCCOCC5)nc(OC[C@]5(CN6CCOCC6)CC5(F)F)nc4c3F)c12 [compound 31]	KRAS-G12V (Homo sapiens, UniProt P01116, G12V)	0.152 µM
C[C@H]1CCOCCN1c1nc(OC[C@]2(CN(C)C)CC2(F)F)nc2c(F)c(-c3ccc(F)c4sc(N)c(C#N)c34)ncc12 [compound 22]	KRAS-G12V (Homo sapiens, UniProt P01116, G12V)	0.0495 µM
COCC1CCOCCN1c1nc(OC[C@@]23CCCN2C[C@H](F)C3)nc2c(F)c(-c3ccc(F)c4sc(N)c(C#N)c34)c(Cl)cc12 (some centres unmarked) [compound 16]	KRAS-G12V (Homo sapiens, UniProt P01116, G12V)	0.00958 µM

Indicate its recorded IC50; the compound in question is CC1CN(c2nc(OC[C@@]34CCCN3C[C@H](F)C4)nc3c(F)c(-c4ccc(F)c5sc(N)c(C#N)c45)c(Cl)cc23)CCCO1 (some centres unmarked) [compound 9] 0.00617 µM

Quick one: give measured IC50 for Cc1cc(N)nc(-c2c(Cl)cc3c(N4CCOCC(F)(F)C4)nc(OC[C@@]45CCCN4C[C@H](F)C5)nc3c2F)c1C(F)(F)F [compound 43] 0.0918 µM

Give IC50 for the following compound: N#Cc1c(N)sc2c(F)ccc(-c3c(Cl)cc4c(N5CCOCC(F)C5)nc(OC[C@@]56CCCN5C[C@H](F)C6)nc4c3F)c12 (some centres unmarked) [compound 11] 0.0064 µM

Return IC50 for the following compound: Cc1cc2[nH]ncc2c(-c2c(F)cc3c(N4CCCOCC4)nc(OC[C@@]45CCCN4C[C@H](F)C5)nc3c2F)c1C(F)(F)F [Ex. 44] 0.235 µM

For the compound N#Cc1c(N)sc2c(F)ccc(-c3c(C(F)(F)F)cc4c(N5C[C@H]6CC[C@H]6C5)nc(OC[C@@]56CCCN5C[C@H](F)C6)nc4c3F)c12 [compound 52] , report IC50. 0.0431 µM

Complete the entry with IC50 for N#Cc1c(N)sc2c(F)ccc(-c3c(C(F)(F)F)cc4c(N5CC6COC(C6)C5)nc(OC[C@@]56CCCN5C[C@H](F)C6)nc4c3F)c12 (some centres unmarked) [compound 51] 0.00452 µM

Output IC50 of N#Cc1c(N)sc2c(F)ccc(-c3c(Cl)cc4c(N5CCCOCC5)nc(OC[C@@]56CCCN5C[C@H](F)C6)nc4c3F)c12 [Ex. 4] 0.00333 µM

Report measured IC50; entry is CC(C)NC[C@@]1(COc2nc(N3CCCOCC3)c3cc(Cl)c(-c4ccc(F)c5sc(N)c(C#N)c45)c(F)c3n2)CC1(F)F [compound 26] 0.0226 µM

Given CC1COCCN(c2nc(OC[C@@]34CCCN3C[C@H](F)C4)nc3c(F)c(-c4ccc(F)c5sc(N)c(C#N)c45)c(Cl)cc23)C1 (some centres unmarked) [compound 8] , respond with its IC50. 0.00759 µM

Query IC50 for CC1(NC[C@@]2(COc3nc(N4CCCOCC4)c4cc(Cl)c(-c5ccc(F)c6sc(N)c(C#N)c56)c(F)c4n3)CC2(F)F)CCC1 [compound 28] 0.0995 µM

Name the recorded IC50 of the item N#Cc1c(N)sc2c(F)ccc(-c3c(Br)cc4c(N5CCCOCC5)nc(OC[C@@]56CCCN5C[C@H](F)C6)nc4c3F)c12 [compound 37] in your answer. 0.00354 µM

Data credit: patent US20260083750A1
